Measured values drawn from PubChem BioAssay (NCI) for this set.

Tested on: SW-620 colon
Assay overview: NCI tumour cell line growth inhibition, 48 h; in the data active = GI50 below about 0.43 µM; inactive = the rest
Output constraint: value belongs to YES = active, NO = inactive

Study these solved cases before continuing.
>  <Item smiles>
Cc1cc2nc(-c3ccc(O)c(O)c3)n(Cc3ccc(O)c(O)c3)c2cc1C

>  <Measured target>
SW-620 colon

>  <Label class>
NO

$$$$
>  <Item smiles>
Cc1cn2cc(-c3ccc4c(c3)CC(=O)N4)nc2s1

>  <Measured target>
SW-620 colon

>  <Label class>
NO

$$$$
>  <Item smiles>
CC[C@@H](C(=O)[C@@H](C)[C@@H](O)[C@H](C)[C@@H]1O[C@@H]([C@@H](CC)C(=O)O)CC[C@@H]1C)[C@H]1O[C@]2(C=C[C@@H](O)[C@]3(CC[C@@](C)([C@H]4CC[C@](O)(CC)[C@H](C)O4)O3)O2)[C@H](C)C[C@@H]1C

>  <Measured target>
SW-620 colon

>  <Label class>
NO

$$$$
>  <Item smiles>
COc1cc2c(=O)n(CC3CCCCC3)c3c4cc[nH]c4ncc3c2cc1OC

>  <Measured target>
SW-620 colon

>  <Label class>
NO

$$$$
>  <Item smiles>
N=C1C=C(N)C(=O)c2ccccc21

>  <Measured target>
SW-620 colon

>  <Label class>
YES

$$$$
>  <Item smiles>
O=C(/C=C/c1ccc(Cl)cc1Cl)c1ccc(Cl)cc1Cl

>  <Measured target>
SW-620 colon

>  <Label class>
NO

$$$$

I'd appreciate the recorded outcome for Cc1nc2sc(C(=O)Nc3ccccc3)c(N)c2cc1C(=O)c1ccccc1 from this test.
NO

I'd appreciate the recorded outcome for COc1ccc(/C=C/C(=O)c2ccc(Nc3nc(Nc4ccc(F)cc4)nc(Nc4ccc(F)cc4)n3)cc2)cc1 from this test.
NO

I'd appreciate the recorded outcome for CC(=O)/C(=C/N1CCN(C(=O)c2ccco2)C1=S)C(=O)c1ccccc1 from this test.
NO
